residual activity reference
- assayed system: Misshapen-like kinase 1 (Homo sapiens)
- particulars: at 10 µM
Give just the numeric value; % need not be written.

Answered examples (3):
smiles_input=CNc1cc2c(Nc3cccc(Br)c3)ncnc2cn1 assay_endpoint="residual activity" test_value=87
smiles_input=Nc1nc(Nc2ccc(S(N)(=O)=O)cc2)nn1C(=S)Nc1c(F)cccc1F assay_endpoint="residual activity" test_value=2
smiles_input=Cc1ccc(S(=O)(=O)/C=C/C#N)cc1 assay_endpoint="residual activity" test_value=104

The reported residual activity of the molecule Cc1cccc(-c2[nH]c(C(C)(C)C)nc2-c2ccc3c(c2)OCO3)n1 was 90

The reported residual activity of the molecule Cn1cc(/C=C2\C(=O)Nc3ccc(S(N)(=O)=O)cc32)c2ccccc21 was 61

The reported residual activity of the molecule CCC(=O)Nc1ccc2ncnc(Nc3cccc(Br)c3)c2c1 was 82

The reported residual activity of the molecule O=C(Nc1cccc(Nc2nccc(Nc3cccc(C(F)(F)F)c3)n2)c1)C1CC1 was 59

The reported residual activity of the molecule CO[C@H]1C[C@@H]2CC[C@@H](C)[C@@](O)(O2)C(=O)C(=O)N2CCCC[C@H]2C(=O)O[C@H]([C@H](C)C[C@@H]2CC[C@@H](O)[C@H](OC)C2)CC(=O)[C@H](C)/C=C(\C)[C@@H](O)[C@@H](OC)C(=O)[C@H](C)C[C@H](C)/C=C/C=C/C=C/1C was 74

The reported residual activity of the molecule Oc1n[nH]c2nnc(-c3c(-c4ccccc4)nn4ccccc34)cc12 was 92

The reported residual activity of the molecule Cc1cncc2cccc(S(=O)(=O)N3CCCN(C(=O)CN)C[C@H]3C)c12 was 72

The reported residual activity of the molecule Oc1ccc(-c2nc(-c3ccc(F)cc3)c(-c3ccncc3)[nH]2)cc1 was 49

The reported residual activity of the molecule O=C1NC(=O)/C(=C/c2ccc3c(c2)OC(F)(F)O3)S1 was 73

The reported residual activity of the molecule Cc1nc(-c2ccccc2)c(-c2ccncc2)o1 was 88

The reported residual activity of the molecule Nc1n[nH]c2nnc(-c3c(-c4ccccc4)nn4ccccc34)cc12 was 39

The reported residual activity of the molecule c1ccc2c(-c3ccncc3)c[nH]c2c1 was 43

---

- assayed system: Insulin-like growth factor 1 receptor (Homo sapiens)
- particulars: at 1 µM
assay endpoint: residual activity (%)
Give just the numeric value; % need not be written.

Answered examples (6):
compound=Cc1nc2cc3nc(-c4cccs4)cnc3cc2n1C test_value=115
compound=O=C1c2ccccc2-[n+]2ccc3c([nH]c4ccccc43)c21 test_value=86
compound=CC(C)n1cnc2c(NCc3ccccc3)nc(NCCCO)nc21 test_value=90
compound=O=C(Nc1cccc(Nc2cc(Nc3cccc(C(F)(F)F)c3)ncn2)c1)C1CC1 test_value=98
compound=Cc1ccc(NC2=CC(=O)c3sc(C)nc3C2=O)cc1 test_value=95
compound=O=c1c2ccccc2[nH]c(=S)n1CCN1CCC(=C(c2ccc(F)cc2)c2ccc(F)cc2)CC1 test_value=112

Proceed to the following item.
The reported residual activity of the compound Oc1ccc(Nc2nc(-c3ccc(Cl)cc3)cs2)cc1 was 103

---

- assayed system: Casein kinase I isoform delta (Homo sapiens)
- particulars: at 1 µM
- Description: Millipore: Percentage of residual kinase activity of CSNK1D at 1uM relative to control. Control inhibitor: Jnk Inhibitor II at 100.0uM. Buffer: 8 mM MOPS pH 7.0, 0.2 mM EDTA
residual activity reference
Write the numeric value and append its unit.

smiles_input=O=C1NC(=O)c2c1c1c3ccccc3[nH]c1c1[nH]c3cc(Br)ccc3c21 assayed_system="Casein kinase I isoform delta (Homo sapiens)" test_value=92%
smiles_input=C[C@@H](N)[C@H]1CC[C@H](C(=O)Nc2ccncc2)CC1 assayed_system="Casein kinase I isoform delta (Homo sapiens)" test_value=103%
smiles_input=COc1cccc(-c2cc(=O)c3ccccc3o2)c1N assayed_system="Casein kinase I isoform delta (Homo sapiens)" test_value=102%
smiles_input=CO[C@@H]1[C@H](N(C)C(=O)c2ccccc2)C[C@H]2O[C@]1(C)n1c3ccccc3c3c4c(c5c6ccccc6n2c5c31)C(=O)NC4 assayed_system="Casein kinase I isoform delta (Homo sapiens)" test_value=80%
smiles_input=N#CC(C#N)=C(N)/C(C#N)=C/c1ccc(O)cc1 assayed_system="Casein kinase I isoform delta (Homo sapiens)" test_value=82%

Proceed to the following item.
The reported residual activity of the compound O=C1NC(=O)/C(=C\c2ccc3nccnc3c2)S1 was 88%

---

- assayed system: Maternal embryonic leucine zipper kinase (Homo sapiens)
- particulars: at 10 µM
residual activity reference
Give just the numeric value; % need not be written.

Answered examples (4):
smiles_input=c1ccc(-c2n[nH]cc2-c2ccnc3ccccc23)nc1 test_value=82
smiles_input=Cn1cnc2cc3c(Nc4cccc(Br)c4)ncnc3cc21 test_value=103
smiles_input=c1ccc(-c2n[nH]c3c2oc2ccccc23)cc1 test_value=7
smiles_input=COc1ccc(S(=O)(=O)N(CCO)c2ccccc2CN(C)C/C=C/c2ccc(Cl)cc2)cc1 test_value=63

The reported residual activity of the molecule O=C(Nc1cccc(Nc2cc(Nc3cccc(C(F)(F)F)c3)ncn2)c1)C1CC1 was 89

The reported residual activity of the molecule COc1cc2ncnc(Nc3ccc(O)c(Br)c3)c2cc1OC was 28

---

- assayed system: Focal adhesion kinase 1 (Homo sapiens) (UniProt Q05397)
- Sequence (Q05397 2-1052 limits assumed): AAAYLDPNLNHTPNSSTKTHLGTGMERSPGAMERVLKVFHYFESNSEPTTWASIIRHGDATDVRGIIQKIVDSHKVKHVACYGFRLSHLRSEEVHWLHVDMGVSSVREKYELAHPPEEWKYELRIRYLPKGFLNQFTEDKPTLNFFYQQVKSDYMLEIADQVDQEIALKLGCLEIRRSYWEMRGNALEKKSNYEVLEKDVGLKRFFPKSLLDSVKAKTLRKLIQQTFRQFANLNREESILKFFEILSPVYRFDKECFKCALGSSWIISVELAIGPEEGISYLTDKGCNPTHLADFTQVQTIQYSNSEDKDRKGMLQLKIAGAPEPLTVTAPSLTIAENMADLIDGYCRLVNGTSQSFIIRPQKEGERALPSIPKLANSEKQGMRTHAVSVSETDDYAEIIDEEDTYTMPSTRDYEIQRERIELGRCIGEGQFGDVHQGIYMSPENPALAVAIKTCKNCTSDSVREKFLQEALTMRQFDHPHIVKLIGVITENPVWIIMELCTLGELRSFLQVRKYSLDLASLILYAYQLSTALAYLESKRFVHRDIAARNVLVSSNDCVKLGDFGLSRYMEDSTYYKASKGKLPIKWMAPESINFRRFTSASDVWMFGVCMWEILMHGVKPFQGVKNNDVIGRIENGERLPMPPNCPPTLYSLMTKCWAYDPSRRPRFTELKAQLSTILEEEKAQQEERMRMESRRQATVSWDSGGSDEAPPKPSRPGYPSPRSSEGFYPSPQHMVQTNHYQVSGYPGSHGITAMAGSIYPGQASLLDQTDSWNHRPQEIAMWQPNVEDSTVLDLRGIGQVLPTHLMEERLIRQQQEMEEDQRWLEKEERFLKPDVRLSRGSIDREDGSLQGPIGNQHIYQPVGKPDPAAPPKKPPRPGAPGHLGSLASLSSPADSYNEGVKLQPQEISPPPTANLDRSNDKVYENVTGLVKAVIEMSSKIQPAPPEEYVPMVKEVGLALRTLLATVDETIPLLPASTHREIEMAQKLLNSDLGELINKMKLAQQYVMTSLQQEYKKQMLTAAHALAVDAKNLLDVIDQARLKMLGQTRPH
- particulars: at 10 µM
Rule: residual activity under 80% gives NOT MET, otherwise MET.

Use these answered entries as a reference point.
smiles_input=CO[C@@H]1[C@H](N(C)C(=O)c2ccccc2)C[C@H]2O[C@]1(C)n1c3ccccc3c3c4c(c5c6ccccc6n2c5c31)C(=O)NC4 discrete_label="NOT MET"
smiles_input=Oc1n[nH]c2nnc(-c3c(-c4ccccc4)nn4ccccc34)cc12 discrete_label=MET
smiles_input=CCN(CC)CCCCN1c2ccccc2Oc2ccc(Cl)cc21 discrete_label=MET

// inclusive: residual activity at least 80%? input: CC(=O)O/N=C1\C(=C2\C(=O)Nc3cc(Br)ccc32)Nc2ccccc21
NOT MET

// inclusive: residual activity at least 80%? input: Nc1n[nH]c2nnc(-c3c(-c4ccccc4)nn4ccccc34)cc12
MET

---

residual activity reference
- assayed system: Serine/threonine-protein kinase WNK3 (Homo sapiens)
- particulars: at 10 µM
- Description: Millipore: Percentage of residual kinase activity of WNK3 at 10uM relative to control. Control inhibitor: Phosphoric acid* at 0.3uM. Buffer: 8 mM MOPS pH 7.0, 0.2 mM EDTA
Write the numeric value and append its unit.

smiles_input=Cc1nc2cc3nc(-c4cccs4)cnc3cc2n1C test_value=71%

The reported residual activity of the compound COc1ccc(C(=O)Nc2sc3c(c2C(N)=O)CCCC3)cc1OC was 94%

The reported residual activity of the compound Cc1cncc2cccc(S(=O)(=O)N3CCCN(C(=O)CN)C[C@H]3C)c12 was 92%

The reported residual activity of the compound COc1ccc(S(=O)(=O)N(CCO)c2ccccc2CN(C)C/C=C/c2ccc(Cl)cc2)cc1 was 88%

The reported residual activity of the compound CCN(CC)CCCCN1c2ccccc2Oc2ccc(Cl)cc21 was 104%

The reported residual activity of the compound CCC(=O)Nc1ccc2ncnc(Nc3cccc(Br)c3)c2c1 was 80%

The reported residual activity of the compound Cc1cc(Nc2nc(-c3ccccc3)nc3ccccc23)n[nH]1 was 31%

The reported residual activity of the compound CC(=O)c1ccc(N2CCOCC2)cc1O was 104%

The reported residual activity of the compound N#CC(C#N)=C(N)/C(C#N)=C/c1ccc(O)cc1 was 75%

---

residual activity reference
- assayed system: Serine/threonine-protein kinase VRK2 (Homo sapiens) (UniProt Q86Y07)
- Sequence (Q86Y07 whole entry): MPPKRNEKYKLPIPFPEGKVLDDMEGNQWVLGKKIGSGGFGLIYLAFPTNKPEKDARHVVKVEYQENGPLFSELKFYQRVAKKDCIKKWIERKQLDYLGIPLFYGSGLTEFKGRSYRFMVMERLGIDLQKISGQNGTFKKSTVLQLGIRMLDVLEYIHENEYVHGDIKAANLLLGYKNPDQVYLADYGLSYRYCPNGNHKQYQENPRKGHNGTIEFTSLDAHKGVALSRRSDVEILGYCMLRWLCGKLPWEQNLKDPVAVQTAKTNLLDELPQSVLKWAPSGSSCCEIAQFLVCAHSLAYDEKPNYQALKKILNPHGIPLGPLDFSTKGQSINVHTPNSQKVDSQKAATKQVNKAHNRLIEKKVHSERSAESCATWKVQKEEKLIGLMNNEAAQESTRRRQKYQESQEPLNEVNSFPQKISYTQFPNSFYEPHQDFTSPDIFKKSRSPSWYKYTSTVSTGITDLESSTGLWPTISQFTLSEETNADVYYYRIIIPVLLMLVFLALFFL
- particulars: at 10 µM
- Description: Millipore: Percentage of residual kinase activity of VRK2 at 10uM relative to control. Control inhibitor: Phosphoric acid* at 0.3uM. Buffer: 8 mM MOPS pH 7.0, 0.2 mM EDTA
Give just the numeric value; % need not be written.

Answered examples (10):
smiles_input=COc1cc2ncnc(Nc3ccc(Oc4ccccc4)cc3)c2cc1OC result_units=% test_value=73
smiles_input=Nc1ccc2ncnc(NCCc3ccc(Oc4ccccc4)cc3)c2c1 result_units=% test_value=95
smiles_input=O=Nc1c(-c2c(O)[nH]c3ccccc23)[nH]c2ccccc12 result_units=% test_value=28
smiles_input=O=c1c2ccccc2[nH]c(=S)n1CCN1CCC(=C(c2ccc(F)cc2)c2ccc(F)cc2)CC1 result_units=% test_value=99
smiles_input=O=C(O)c1ccc2c3c1cccc3c(=O)n1c3ccccc3nc21 result_units=% test_value=89
smiles_input=COc1ccc(OC)c2c(=S)c3ccccc3[nH]c12 result_units=% test_value=86
smiles_input=COc1cccc(-c2cc(=O)c3ccccc3o2)c1N result_units=% test_value=96
smiles_input=COc1cc2ncnc(N3CCN(C(=O)Nc4ccc(Oc5ccccc5)cc4)CC3)c2cc1OC result_units=% test_value=86
smiles_input=CC#CC(=O)Nc1cc2c(Nc3ccc(F)c(Cl)c3)ncnc2cn1 result_units=% test_value=92
smiles_input=O=c1cc(-c2cccc3c2Sc2ccccc2S3)oc(N2CCOCC2)c1 result_units=% test_value=97

Proceed to the following item.
The reported residual activity of the molecule Cn1cnc2cc3c(Nc4cccc(Br)c4)ncnc3cc21 was 95

---

residual activity reference
- assayed system: Ribosomal protein S6 kinase alpha-6 (Homo sapiens)
- particulars: at 1 µM
Give just the numeric value; % need not be written.

Answered examples (3):
smiles_input=O=C1NC(=O)c2cc(Nc3ccc(F)cc3)c(Nc3ccc(F)cc3)cc21 test_value=101
smiles_input=CCOc1cc2ncnc(Nc3cccc(Br)c3)c2cc1OCC test_value=92
smiles_input=COc1cc2ncnc(Nc3ccc(Oc4ccccc4)cc3)c2cc1OC test_value=102

The reported residual activity of the compound Cc1ccc(NC2=CC(=O)c3sc(C)nc3C2=O)cc1 was 72

The reported residual activity of the compound COc1cc2ncnc(N3CCN(C(=O)Nc4ccc(Oc5ccccc5)cc4)CC3)c2cc1OC was 106

The reported residual activity of the compound Nc1cccc(-c2cc3c(Oc4cccc(O)c4)ncnc3[nH]2)c1 was 56
